I'd appreciate it if you could supply log10 of kon values for the items below.
system.name: T1, Fusion protein of extracellular domain of human TIGIT and His-tag (human TIGIT ECD-his) (human)
T1 chain: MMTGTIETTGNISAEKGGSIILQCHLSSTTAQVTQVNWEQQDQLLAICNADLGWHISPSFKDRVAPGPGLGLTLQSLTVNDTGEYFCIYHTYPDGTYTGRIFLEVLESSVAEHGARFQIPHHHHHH
procedure.summary: BIAcore
Short version: log10 scale, kon, M⁻¹ s⁻¹.

Note log10 of kon for the binder shown: TIGIT-070-H1L2 (antibody, V domains shown, Humanized anti-TIGIT antibody) VH: EVQLVQSGAEVKKPGASVKVSCKASGYTFTNYYMHWVRQAPGQRLEWMGRIDPDSGGSKYNEKFKSRVTITVDKSASTAYMELSSLRSEDTAVYYCAREGHYGFYSDYWGQGTTVTVSS VL: DIQMTQSPSSLSASVGDRVTITCRVSENIYSYLAWYQQKPGKSPKLLVYNAKTLAEGVPSRFSGSGSGTDFTLTISSLQPEDFATYYCQHHYGNPLTFGPGTKVDIK
6.22

Please report log10 of kon for the following binder: TIGIT-070-H3L3 (antibody, V domains shown, Humanized anti-TIGIT antibody) VH: EVQLVQSGAEVKKPGASVKVSCKASGYTFTNYYMHWVRQAPGQGLEWMGRIDPDSGGSKYNEKFKSRVTITVDKLSSTAYMELSSLRSEDTAVYYCAREGHYGFYSDYWGQGTTVTVSS VL: DIVMTQSPDSLAVSLGERATINCRVSENIYSYLAWYQQKPGQSPKLLVYNAKTLAEGVPDRFSGSGSGTDFTLTISSLQAEDVAVYYCQHHYGNPLTFGPGTKVDIK
6.12

Answer with the recorded log10 of kon of TIGIT-002-H4L3 (antibody, V domains shown, Humanized anti-TIGIT antibody) VH: EVQLQESGPGLVKPSETLSLTCAVSGYSITSDSWNWIRQPPGKKLEYIGYISYSGNTYYNPSLKSRVTISRDTSKNQFSLKLSSVTAADTAVYYCARLDFSNYGGAVDYWGQGTTVTVSS VL: DIVMTQSPDSLAVSLGERATINCKASQNVRTAVAWYQQKPGQSPKLMIYSASYRYTGVPDRFSGSGSGTDFTLTISSLQAEDVAVYYCQQYYTTPWTFGGGTKVEIK only.
6.75

Tell us which log10 of kon value is on record for TIGIT-002-H3L3 (antibody, V domains shown, Humanized anti-TIGIT antibody) VH: EVQLQESGPGLVKPSETLSLTCAVSGYSITSDSWNWIRQPPGKKLEWMGYISYSGNTYYNPSLKSRITISRDTSKNQFSLKLSSVTAADTAVYYCARLDFSNYGGAVDYWGQGTTVTVSS VL: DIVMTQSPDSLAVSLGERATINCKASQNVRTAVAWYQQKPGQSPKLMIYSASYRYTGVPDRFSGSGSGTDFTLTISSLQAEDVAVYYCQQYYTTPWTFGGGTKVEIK
6.66

Entry TIGIT-006-H5L1 (antibody, V domains shown, Humanized anti-TIGIT antibody) VH: EVQLQESGPGLVKPSETLSLTCAVSGYSMTSDYWNWIRQPPGKKLEYIGYISYSGRTYYNPSLKSRVTISRDTSKNQFSLKLSSVTAADTAVYYCARGDYSNYGGAMYDWGQGTTVTVSS VL: DIVMTQTPLSLSVTPGQPASISCRASQGVSTTIAWYLQKPGQSPQLLIYSASYRYTGVPDRFSGSGSGTDFTLKISRVEAEDVGVYYCQQYYSSPFTFGGGTKVEIK needs its log10 of kon filled in; supply it.
6.36

Give a short answer stating reported log10 of kon for TIGIT-005-H2L1b (antibody, V domains shown, Humanized anti-TIGIT antibody with NG-site mutation in VL) VH: EVQLVQSGAEVKKPGASVKVSCKASGYAFTNYLIEWVRQAPGQRLEWMGVINPGSGGTNYKEKFKGRVTITADKSSSTAYMELSSLRSEDTAVYYCARGEYFFFDYWGQGTTVTVSS VL: DIVMTQSPDSLAVSLGERATINCKASQHVSTGVAWYQHKPGQSPKLLIYSASYRYTGVPDRFSGSGSGTDFTLTISSLQAEDVAVYYCQQHYNTPHTFGGGTKVEIK .
6.53

For TIGIT-006-H3L2 (antibody, V domains shown, Humanized anti-TIGIT antibody) VH: EVQLQESGPGLVKPSETLSLTCAVSGYSMTSDYWNWIRQPPGKKLEWIGYISYSGRTYYNPSLKSRVTISRDTSKNQFSLKLSSVTAADTAVYYCARGDYSNYGGAMYDWGQGTTVTVSS VL: DIVMTQTPLSLSVTPGQPASISCRASQGVSTTIAWYQQKPGQSPKLLIYSASYRYTGVPDRFSGSGSGTDFTLKISRVEAEDVGVYYCQQYYSSPFTFGGGTKVEIK , write its log10 of kon.
5.45

Determine from records and report log10 of kon for TIGIT-070-H2L3 (antibody, V domains shown, Humanized anti-TIGIT antibody) VH: EVQLVQSGAEVKKPGASVKVSCKASGYTFTNYYMHWVRQAPGQRLEWMGRIDPDSGGSKYNEKFKSRVTITVDKLSSTAYMELSSLRSEDTAVYYCAREGHYGFYSDYWGQGTTVTVSS VL: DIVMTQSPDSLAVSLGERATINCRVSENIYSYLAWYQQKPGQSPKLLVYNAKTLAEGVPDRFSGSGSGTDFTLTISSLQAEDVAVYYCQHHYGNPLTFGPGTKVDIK
6.25

Give me measured log10 of kon, please, for this binder: TIGIT-006-H3L1 (antibody, V domains shown, Humanized anti-TIGIT antibody) VH: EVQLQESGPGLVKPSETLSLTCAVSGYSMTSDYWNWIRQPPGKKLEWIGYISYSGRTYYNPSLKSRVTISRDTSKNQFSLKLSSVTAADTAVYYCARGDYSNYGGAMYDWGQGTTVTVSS VL: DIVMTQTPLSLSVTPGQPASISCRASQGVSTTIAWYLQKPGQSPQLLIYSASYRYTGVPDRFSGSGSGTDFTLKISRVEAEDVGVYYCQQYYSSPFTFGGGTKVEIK
5.53

Read off the recorded log10 of kon for TIGIT-006-H1L1 (antibody, V domains shown, Humanized anti-TIGIT antibody) VH: EVQLQESGPGLVKPSETLSLTCAVSGYSITSDYWNWIRQPPGKGLEWIGYISYSGRTYYNPSLKSRVTISRDTSKNQFSLKLSSVTAADTAVYYCARGDYSNYGGAMYDWGQGTTVTVSS VL: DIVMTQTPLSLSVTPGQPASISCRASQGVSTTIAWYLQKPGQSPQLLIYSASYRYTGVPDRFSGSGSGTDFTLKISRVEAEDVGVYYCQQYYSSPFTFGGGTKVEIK
5.09

Taken from patent US20240343803A1.
